protein stability index values for the variants below.
B1: CDKN1A (parent)
chain: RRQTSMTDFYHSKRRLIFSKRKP

- Variants of: B1
- ASSAY NAME: protein stability index of a GFP-peptide fusion (GPS, HEK-293T) (PSI 1-6); higher = more stable;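 also: lentivirally expressed fusions sorted by FACS into six bins by GFP to DsRed ratio, PSI derived from sequencing read proportions per bin multiplied by bin number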
- RUN CONDITIONS: c terminus: native

MUTATION KEY	protein stability index
R1E	3
H11I	2.03
R1M	2.04
S5D	2.95
